Origin of values: ChEMBL document CHEMBL3232730

Catalogue of IC50 values
Test system: U-937
assayRemarks: Antiproliferative activity against human U937 cells assessed as cell viability after 72 hrs by CCK8 assay
Format: functional, cell-based
measurementConditions: Homo sapiens, U-937, 72 h; read-out: IC50
measurementType: IC50 (nM)

> print(dat)
                          compoundstructure  testresult
1  Cc1cc(Nc2cc(N3CCN(C)CC3)nc(Nc3ccc(S(N)(=O)=O)cc3)n2)n[nH]1         100
2  COC(=O)c1ccc(Nc2nc(Nc3cc(C)[nH]n3)cc(N3CCN(C)CC3)n2)cc1         119
3  COC(=O)c1ccc(Nc2nc(Nc3cc(C)[nH]n3)cc(N3CCOCC3)n2)cc1         447
4  Cc1cc(Nc2cc(N3CCN(C)CC3)nc(Nc3cccc([N+](=O)[O-])c3)n2)n[nH]1        25.2
5  Cc1cc(Nc2cc(N3CCN(C)CC3)nc(Nc3ccc(C(=O)OC(C)C)cc3)n2)n[nH]1         103
6  Cc1cc(Nc2cc(N3CCN(C)CC3)nc(Nc3ccc(C#N)cc3)n2)n[nH]1        9.03

----------
targetOrSystem: Aurora kinase A (Homo sapiens, UniProt O14965)
Sequence (O14965 whole entry): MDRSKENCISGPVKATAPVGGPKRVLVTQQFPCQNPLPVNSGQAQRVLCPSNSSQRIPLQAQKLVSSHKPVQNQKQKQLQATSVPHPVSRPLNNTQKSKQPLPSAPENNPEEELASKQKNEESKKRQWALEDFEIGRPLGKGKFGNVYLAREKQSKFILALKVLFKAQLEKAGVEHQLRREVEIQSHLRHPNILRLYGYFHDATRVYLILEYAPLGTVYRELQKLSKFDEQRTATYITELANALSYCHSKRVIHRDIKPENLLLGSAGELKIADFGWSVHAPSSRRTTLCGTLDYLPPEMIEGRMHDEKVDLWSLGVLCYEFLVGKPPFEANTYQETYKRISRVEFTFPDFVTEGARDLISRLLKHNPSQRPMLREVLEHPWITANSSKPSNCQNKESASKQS
pIC50: −log10 of the molar value.
Catalogue of pIC50 values
measurementType: pIC50

> print(dat)
                           compoundstructure  measurementtype  testresult
 1  Cc1cc(Nc2cc(N3CCN(C)CC3)nc(Nc3ccc(N4CCOCC4)cc3)n2)n[nH]1            pIC50        6.95
 2  Cc1cc(Nc2cc(N3CCN(C)CC3)nc(Nc3ccc(S(N)(=O)=O)cc3)n2)n[nH]1            pIC50        8.30
 3  Cc1cc(Nc2cc(N3CCN(C)CC3)nc(Nc3cccc([N+](=O)[O-])c3)n2)n[nH]1            pIC50        7.80
 4  COC(=O)c1ccc(CNc2nc(Nc3cc(C)[nH]n3)cc(N3CCN(C)CC3)n2)cc1            pIC50        6.90
 5  COC(=O)c1ccc(Nc2nc(Nc3cc(C)[nH]n3)cc(N3C[C@@H](C)O[C@@H](C)C3)n2)cc1            pIC50        6.95
 6  Cc1cc(Nc2cc(N3CCN(C)CC3)nc(Nc3ccccc3Cl)n2)n[nH]1            pIC50        6.83
 7  Cc1cc(Nc2cc(N3CCOCC3)nc(Nc3ccc([N+](=O)[O-])cc3)n2)n[nH]1            pIC50        7.96
 8  COC(=O)c1ccc(Nc2nc(Nc3cc(C)[nH]n3)cc(N3CCOCC3)n2)cc1            pIC50        7.60
 9  COC(=O)c1ccc(Nc2nc(Nc3cc(C)[nH]n3)cc(N3CCN(S(=O)(=O)c4ccc(C)cc4)CC3)n2)cc1            pIC50        6.24
10  COC(=O)c1ccc(CNc2nc(Nc3cc(C)[nH]n3)cc(N3CCOCC3)n2)cc1            pIC50        7.01
11  Cc1cc(Nc2cc(N3CCN(C)CC3)nc(Nc3ccc(C#N)cc3)n2)n[nH]1            pIC50        8.10
12  COc1cccc(Nc2nc(Nc3cc(C)[nH]n3)cc(N3CCN(C)CC3)n2)c1            pIC50        7.66

----------
Test system: HeLa
assayRemarks: Antiproliferative activity against human HeLa cells assessed as cell viability after 72 hrs by CCK8 assay
Assay type: functional, cell-based
measurementConditions: Homo sapiens, HeLa, 72 h; read-out: IC50
The label is MET for IC50 below 600 nM and NOT MET for IC50 equal to or exceeding 600 nM.

> print(dat)
                          compoundstructure  assignedcategory
1  COC(=O)c1ccc(Nc2nc(Nc3cc(C)[nH]n3)cc(N3CCN(C)CC3)n2)cc1Cl               MET
2  COC(=O)c1ccc(Nc2nc(Nc3cc(C)[nH]n3)cc(N3CCOCC3)n2)cc1           NOT MET
3  Cc1cc(Nc2cc(N3CCN(C)CC3)nc(Nc3ccc(C(=O)OC(C)C)cc3)n2)n[nH]1           NOT MET
4  Cc1cc(Nc2cc(N3CCN(C)CC3)nc(Sc3ccc(NC(=O)C4CC4)cc3)n2)n[nH]1           NOT MET
5  Cc1cc(Nc2cc(N3CCN(C)CC3)nc(Nc3ccc(C#N)cc3)n2)n[nH]1               MET
6  Cc1cc(Nc2cc(N3CCN(C)CC3)nc(Nc3ccc(S(N)(=O)=O)cc3)n2)n[nH]1           NOT MET

----------
Catalogue of pIC50 values
Tested on: HeLa
assayRemarks: Antiproliferative activity against human HeLa cells assessed as cell viability after 72 hrs by CCK8 assay
Format: functional, cell-based
measurementConditions: Homo sapiens, HeLa, 72 h; read-out: IC50
pIC50: −log10 of the molar value.
measurementType: pIC50

> print(dat)
                          compoundstructure  testresult
1  Cc1cc(Nc2cc(N3CCN(C)CC3)nc(Nc3cccc([N+](=O)[O-])c3)n2)n[nH]1        5.95
2  COc1ccc(Nc2nc(Nc3cc(C)[nH]n3)cc(N3CCN(C)CC3)n2)cc1        6.06
3  COC(=O)c1ccc(Nc2nc(Nc3cc(C)[nH]n3)cc(N3CCN(C)CC3)n2)cc1        5.90
